Test system: peripheral blood mononuclear cells (PBMC)
METHOD_DESCRIPTION: Anti-proliferative or immunosuppressive activity, BrdU incorporation in PHA-stimulated PBMC
Type: cell-based
TEST_CONDITIONS: PHA 3 μg/ml, 60 hour compound treatment; read-out: EMV PBMC IC50
Starred links: 1 amine or outer side, 2 acyl side, 3 side chain; linkers in the order of their positions; H or OH if unused. Non-standard residues stand in square brackets, D forms with d. Residues, ends and D or L forms follow the SMILES beside them. X28 = CCN1CCN(C(=O)OC[C@H](C)[C@@H](C(=O)[*:2])N(C)[*:1])CC1; X12 = C[C@@H](CN1CCN(C2CCC2)CC1)[C@@H](C(=O)[*:2])N(C)[*:1]; X29 = CC(=O)N1CCN(C[C@@H](C)[C@@H](C(=O)[*:2])N(C)[*:1])CC1; X63 = C[C@H](CN1CCN(C2COC2)CC1)[C@@H](C(=O)[*:2])N(C)[*:1]; MeBmt = C/C=C/C[C@@H](C)[C@@H](O)[C@H](NC)C(=O)O; NMeL = CN[C@@H](CC(C)C)C(=O)O; NMeV = CN[C@H](C(=O)O)C(C)C; dNMeA = CN[C@H](C)C(=O)O; Abu = CC[C@H](N)C(=O)O
Below is a list of entries, each paired with its recorded IC50 value.
Entry rule: numbers only, all in µM.

- COMPOUND: "C/C=C/C[C@@H](C)[C@@H](O)[C@H]1C(=O)N[C@@H](CC)C(=O)N(C)[C@H](C)C(=O)N(C)[C@@H]([C@@H](C)CN2CCN(C3CCC3)CC2)C(=O)N[C@@H](C(C)C)C(=O)N(C)[C@@H](CC(C)C)C(=O)N[C@@H](C)C(=O)N[C@H](C)C(=O)N(C)[C@@H](CC(C)C)C(=O)N(C)[C@@H](CC(C)C)C(=O)N(C)[C@@H](C(C)C)C(=O)N1C [Compound 2.17.3] (cyclo(A[dA][NMeL][NMeL][NMeV][MeBmt][Abu][dNMeA][X12]V[NMeL]))"
  ASSAYED_SYSTEM: "peripheral blood mononuclear cells (PBMC)"
  VALUE_UNIT: "µM"
  IC50: 6.7

## Input Entry under review: C/C=C/C[C@@H](C)[C@@H](O)[C@H]1C(=O)N[C@@H](CC)C(=O)N(C)[C@H](C)C(=O)N(C)[C@@H]([C@H](C)CN2CCN(C(C)=O)CC2)C(=O)N[C@@H](C(C)C)C(=O)N(C)[C@@H](CC(C)C)C(=O)N[C@@H](C)C(=O)N[C@H](C)C(=O)N(C)[C@@H](CC(C)C)C(=O)N(C)[C@@H](CC(C)C)C(=O)N(C)[C@@H](C(C)C)C(=O)N1C [Compound 2.5.23] (cyclo(A[dA][NMeL][NMeL][NMeV][MeBmt][Abu][dNMeA][X29]V[NMeL])) . Reported IC50?
## Output 22.8

## Input Entry under review: C/C=C/C[C@@H](C)[C@@H](O)[C@H]1C(=O)N[C@@H](CC)C(=O)N(C)[C@H](C)C(=O)N(C)[C@@H]([C@H](C)CN2CCN(C3COC3)CC2)C(=O)N[C@@H](C(C)C)C(=O)N(C)[C@@H](CC(C)C)C(=O)N[C@@H](C)C(=O)N[C@H](C)C(=O)N(C)[C@@H](CC(C)C)C(=O)N(C)[C@@H](CC(C)C)C(=O)N(C)[C@@H](C(C)C)C(=O)N1C [Compound 2.5.11] (cyclo(A[dA][NMeL][NMeL][NMeV][MeBmt][Abu][dNMeA][X63]V[NMeL])) . Reported IC50?
## Output 13.9

## Input Entry under review: "C/C=C/C[C@@H](C)[C@@H](O)[C@H]1C(=O)N[C@@H](CC)C(=O)N(C)[C@H](C)C(=O)N(C)[C@@H]([C@H](C)COC)C(=O)N[C@@H](C(C)C)C(=O)N(C)[C@@H](CC(C)C)C(=O)N[C@@H](C)C(=O)N[C@H](C)C(=O)N(C)[C@@H](CC(C)C)C(=O)N(C)[C@@H](CC(C)C)C(=O)N(C)[C@@H](C(C)C)C(=O)N1C" . Reported IC50?
## Output 10.6

## Input Entry under review: C/C=C/C[C@@H](C)[C@@H](O)[C@H]1C(=O)N[C@@H](CC)C(=O)N(C)[C@H](C)C(=O)N(C)[C@@H]([C@@H](C)COC(=O)N2CCN(CC)CC2)C(=O)N[C@@H](C(C)C)C(=O)N(C)[C@@H](CC(C)C)C(=O)N[C@@H](C)C(=O)N[C@H](C)C(=O)N(C)[C@@H](CC(C)C)C(=O)N(C)[C@@H](CC(C)C)C(=O)N(C)[C@@H](C(C)C)C(=O)N1C [Compound 2.17.14] (cyclo(A[dA][NMeL][NMeL][NMeV][MeBmt][Abu][dNMeA][X28]V[NMeL])) . Reported IC50?
## Output 8.1

###

Test system: peripheral blood mononuclear cells (PBMC)
METHOD_DESCRIPTION: Anti-proliferative or immunosuppressive activity, BrdU incorporation in PHA-stimulated PBMC
Assay type: cell-based
TEST_CONDITIONS: PHA 3 μg/ml, 60 hour compound treatment; read-out: EMV PBMC IC50
Starred links: 1 amine or outer side, 2 acyl side, 3 side chain; linkers in the order of their positions; H or OH if unused. Non-standard residues stand in square brackets, D forms with d. Residues, ends and D or L forms follow the SMILES beside them. X75 = C[C@H](CCC(C)(C)OC(=O)N1CCN(C)CC1)[C@@H](C(=O)[*:2])N(C)[*:1]; X58 = C[C@H](COCCN1CCN(C2CCC2)CC1)[C@@H](C(=O)[*:2])N(C)[*:1]; MeBmt = C/C=C/C[C@@H](C)[C@@H](O)[C@H](NC)C(=O)O; NMeL = CN[C@@H](CC(C)C)C(=O)O; NMeV = CN[C@H](C(=O)O)C(C)C; dNMeA = CN[C@H](C)C(=O)O; Abu = CC[C@H](N)C(=O)O
Below is a list of entries, each paired with its recorded pIC50 value.
In plain terms, pIC50 is the concentration in mol/L turned into minus its base-10 logarithm.

## Input Entry under review: C/C=C/C[C@@H](C)[C@@H](O)[C@H]1C(=O)N[C@@H](CC)C(=O)N(C)[C@H](C)C(=O)N(C)[C@@H]([C@H](C)CCC(C)(C)OC(=O)N2CCN(C)CC2)C(=O)N[C@@H](C(C)C)C(=O)N(C)[C@@H](CC(C)C)C(=O)N[C@@H](C)C(=O)N[C@H](C)C(=O)N(C)[C@@H](CC(C)C)C(=O)N(C)[C@@H](CC(C)C)C(=O)N(C)[C@@H](C(C)C)C(=O)N1C [Compound 2.12.2] (cyclo(A[dA][NMeL][NMeL][NMeV][MeBmt][Abu][dNMeA][X75]V[NMeL])) . Reported pIC50?
## Output 4.94

## Input Entry under review: C/C=C/C[C@@H](C)[C@@H](O)[C@H]1C(=O)N[C@@H](CC)C(=O)N(C)[C@H](C)C(=O)N(C)[C@@H]([C@H](C)COCCN2CCN(C3CCC3)CC2)C(=O)N[C@@H](C(C)C)C(=O)N(C)[C@@H](CC(C)C)C(=O)N[C@@H](C)C(=O)N[C@H](C)C(=O)N(C)[C@@H](CC(C)C)C(=O)N(C)[C@@H](CC(C)C)C(=O)N(C)[C@@H](C(C)C)C(=O)N1C [Compound 2.8.8] (cyclo(A[dA][NMeL][NMeL][NMeV][MeBmt][Abu][dNMeA][X58]V[NMeL])) . Reported pIC50?
## Output 4.72

###

ASSAYED_SYSTEM: CypF (Homo sapiens (Human))
Sequence (P30405 30-207): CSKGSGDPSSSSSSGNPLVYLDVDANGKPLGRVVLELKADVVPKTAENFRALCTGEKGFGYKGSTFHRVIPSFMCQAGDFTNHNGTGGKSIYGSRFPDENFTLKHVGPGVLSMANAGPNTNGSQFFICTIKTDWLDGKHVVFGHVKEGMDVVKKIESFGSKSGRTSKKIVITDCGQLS
METHOD_DESCRIPTION: Inhibitor binding to cyclophilin proteins by SPR, CypF
TEST_CONDITIONS: 1:1 binding model
Protocol: Method 1: Measuring Inhibitor Binding to Cyclophilin Proteins Binding of inhibitors to expressed cyclophilins was determined using surface plasmon resonance (SPR) experiments. Briefly, avi-tagged cyclophilin proteins with mono-biotinylation were immobilized onto a Biotin CAPture chip (GE Healthcare, cat. #28920234). […] Data was analyzed using Biacore T200 Evaluation Software Version 1.0 and a 1:1 binding model was applied to fit the data to obtain kon, koff, and KD.
Starred links: 1 amine or outer side, 2 acyl side, 3 side chain; linkers in the order of their positions; H or OH if unused. Non-standard residues stand in square brackets, D forms with d. Residues, ends and D or L forms follow the SMILES beside them. X82 = C[C@H](COCCN1CCOC[C@@H]1C)[C@@H](C(=O)[*:2])N(C)[*:1]; X9 = C[C@@H](CN1CCOCC1)[C@@H](C(=O)[*:2])N(C)[*:1]; MeBmt = C/C=C/C[C@@H](C)[C@@H](O)[C@H](NC)C(=O)O; NMeL = CN[C@@H](CC(C)C)C(=O)O; NMeV = CN[C@H](C(=O)O)C(C)C; dNMeA = CN[C@H](C)C(=O)O; Abu = CC[C@H](N)C(=O)O
QUANTITY_NAME: CypF Kd (pM)
Entry rule: numbers only, all in pM.

- MOLECULE: "C/C=C/C[C@@H](C)[C@@H](O)[C@H]1C(=O)N[C@@H](CC)C(=O)N(C)[C@H](C)C(=O)N(C)[C@@H]([C@@H](C)CN2CCOCC2)C(=O)N[C@@H](C(C)C)C(=O)N(C)[C@@H](CC(C)C)C(=O)N[C@@H](C)C(=O)N[C@H](C)C(=O)N(C)[C@@H](CC(C)C)C(=O)N(C)[C@@H](CC(C)C)C(=O)N(C)[C@@H](C(C)C)C(=O)N1C [Compound 2.17.1] (cyclo(A[dA][NMeL][NMeL][NMeV][MeBmt][Abu][dNMeA][X9]V[NMeL]))"
  ASSAYED_SYSTEM: "CypF (Homo sapiens (Human))"
  MEASURED_VALUE: 300

Query molecule follows.
## Input Entry under review: C/C=C/C[C@@H](C)[C@@H](O)[C@H]1C(=O)N[C@@H](CC)C(=O)N(C)[C@H](C)C(=O)N(C)[C@@H]([C@H](C)COCCN2CCOC[C@@H]2C)C(=O)N[C@@H](C(C)C)C(=O)N(C)[C@@H](CC(C)C)C(=O)N[C@@H](C)C(=O)N[C@H](C)C(=O)N(C)[C@@H](CC(C)C)C(=O)N(C)[C@@H](CC(C)C)C(=O)N(C)[C@@H](C(C)C)C(=O)N1C [Compound 2.8.6] (cyclo(A[dA][NMeL][NMeL][NMeV][MeBmt][Abu][dNMeA][X82]V[NMeL])) . Reported CypF Kd?
## Output 800
